- System: Hepatotoxicity
- protocolNotes: FDA HLAED, lactate dehydrogenase (LDH) increase
- assaySetup: human
reportedMetric: LDH Increase - Number of Reports

# compound, LDH Increase - Number of Reports
data = [
    ("O=C(O)CCc1nc(-c2ccccc2)c(-c2ccccc2)o1", ">= 4"),
    ("COc1ccc(CCN2CCC(Nc3nc4ccccc4n3Cc3ccc(F)cc3)CC2)cc1", "< 4"),
    ("CC(C)(C)c1ccc(C(O)CCCN2CCC(C(O)(c3ccccc3)c3ccccc3)CC2)cc1 (configuration not stated)", "< 4"),
    ("CCC1=C[C@@H]2CN(C1)Cc1c([nH]c3ccccc13)[C@@](C(=O)OC)(c1cc3c(cc1OC)N(C)[C@H]1[C@@](O)(C(=O)OC)[C@H](OC(C)=O)[C@]4(CC)C=CCN5CC[C@]31[C@@H]54)C2", ">= 4"),
    ("C=C1/C(=C\\C=C2/CCC[C@]3(C)[C@@H]([C@H](C)CCCC(C)(C)O)CC[C@@H]23)C[C@@H](O)C[C@@H]1O", "< 4"),
]

[in] Bench note: what LDH Increase - Number of Reports did `CO[C@]12CC[C@@]3(C[C@@H]1[C@](C)(O)C(C)(C)C)[C@H]1Cc4ccc(O)c5c4[C@@]3(CCN1CC1CC1)[C@H]2O5` show?
[out] < 4

[in] Bench note: what LDH Increase - Number of Reports did OCc1cc(C(O)CNCCCCCCOCCCCc2ccccc2)ccc1O (configuration not stated) show?
[out] < 4

* * *

Could you please report measured LDH Increase - Index Value for the items listed next?
- System: Hepatotoxicity; on LDH Increase - Index Value: reference of the scale not given here
- protocolNotes: FDA HLAED, lactate dehydrogenase (LDH) increase
- assaySetup: human
Enter a number only.

[in] Bench note: what LDH Increase - Index Value did `CCOC(=O)Nc1ccc2c(c1)N(C(=O)CCN1CCOCC1)c1ccccc1S2` show?
[out] 3.4

[in] Bench note: what LDH Increase - Index Value did `CO/N=C(\C(=O)N[C@@H]1C(=O)N2C(C(=O)[O-])=C(C[N+]3(C)CCCC3)CS[C@H]12)c1csc(N)n1` show?
[out] 27.4

[in] Bench note: what LDH Increase - Index Value did CC(=O)O[C@H]1C[C@@H]2CC[C@@H]3[C@H](CC[C@@]4(C)[C@H]3C[C@H](N3CC[N+](C)(C)CC3)[C@@H]4OC(C)=O)[C@@]2(C)C[C@@H]1N1CC[N+](C)(C)CC1.[Br-].[Br-] [PIPECURONIUM BROMIDE] show?
[out] 0

[in] Bench note: what LDH Increase - Index Value did COc1ccc(Cl)cc1C(=O)NCCc1ccc(S(=O)(=O)NC(=O)NC2CCCCC2)cc1 [GLYBURIDE] show?
[out] 0.8

[in] Bench note: what LDH Increase - Index Value did `Cc1ccc(-c2nc3ccc(C)cn3c2CC(=O)N(C)C)cc1` show?
[out] 0.7

[in] Bench note: what LDH Increase - Index Value did FC(F)OC(Cl)C(F)(F)F (configuration not stated) show?
[out] 0

[in] Bench note: what LDH Increase - Index Value did `C[C@H]1COc2c(N3CCN(C)CC3)c(F)cc3c(=O)c(C(=O)O)cn1c23.C[C@H]1COc2c(N3CCN(C)CC3)c(F)cc3c(=O)c(C(=O)O)cn1c23.O` show?
[out] 0
